Each recorded value in this set is attributed to patent US9656984B2.

Tested on: MCF-7 (ER-positive) breast tumor cell line
Assay info: Cell death by MTT assay, MCF-7
Format: cell-based, human
Experimental setup: MCF-7, 6.25 μM, 24 hours, mean of four experiments
Entries and their measured percentage of cell death follow.
Quantity: percentage of cell death

> print(dat)
                                   compound                  quantity  result
1  O=[N+]([O-])C1Cc2cc(Br)ccc2OC1c1ccc(F)cc1 (stereo not drawn)  percentage of cell death  10.88%
2  O=[N+]([O-])C1=Cc2cc(Br)ccc2OC1c1ccc(Cl)cc1 (stereo not drawn)  percentage of cell death      0%
3  O=[N+]([O-])C1=Cc2cc(Br)ccc2OC1c1ccc(Br)cc1 (stereo not drawn)  percentage of cell death      0%
4  O=[N+]([O-])C1=Cc2cc(Br)cc(Br)c2OC1c1ccc(Br)cc1 (stereo not drawn)  percentage of cell death  47.86%
5  O=[N+]([O-])C1=Cc2cccc(Br)c2OC1c1ccc(Cl)cc1 (stereo not drawn)  percentage of cell death      0%
6  O=c1cc(N2CCOCC2)oc2c(-c3ccccc3)cccc12 [LY294002, reference compound]  percentage of cell death  11.53%
